# Test system: NCI-H1876 complex spheroid growth, % test/control
# Test protocol: Anticancer human tumor NCI-H1876 cell line growth inhibition [Asc];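 also: compound exposure lasted 7 days starting three days after seeding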
# Condition parameters: curve of first compound; second compound 3.16 µM
Measurement type: IC50

-- ask Report IC50 for CCN1C(C(=O)NC23CCC(C(=O)O)(CC2)CC3)C(c2cccc(Cl)c2F)C2(C(=O)Nc3cc(Cl)ccc32)C12CCCCC2 (stereo unspecified) + Cc1c(S(C)(=O)=O)c(-c2cc(F)cc(N3CCN(c4ccc(NS(=O)(=O)c5ccc(NC(CCN6CCC(C(=O)OCCCP(=O)(O)O)CC6)CSc6ccccc6)c(S(=O)(=O)C(F)(F)F)c5)cc4)CC3)c2)c(-c2ccc(Cl)cc2)n1C(C)C please.
-- reply > 3000 nM

-- ask Try this compound next: CNC(C)C(=O)NC1CN(S(=O)(=O)c2cccc(S(=O)(=O)N3CCC4CCC(C(=O)NC(c5ccccc5)c5ccccc5)N4C(=O)C(NC(=O)C(C)NC)C3)c2)CCC2CCC(C(=O)NC(c3ccccc3)c3ccccc3)N2C1=O (stereo unspecified) + Cc1c(S(C)(=O)=O)c(-c2cc(F)cc(N3CCN(c4ccc(NS(=O)(=O)c5ccc(NC(CCN6CCC(C(=O)OCCCP(=O)(O)O)CC6)CSc6ccccc6)c(S(=O)(=O)C(F)(F)F)c5)cc4)CC3)c2)c(-c2ccc(Cl)cc2)n1C(C)C
-- reply > 1000 nM

-- ask // repeat for CCN1CCN(Cc2ccc(Nc3ncc(F)c(-c4cc(F)c5nc(C)n(C(C)C)c5c4)n3)nc2)CC1 + Cc1c(S(C)(=O)=O)c(-c2cc(F)cc(N3CCN(c4ccc(NS(=O)(=O)c5ccc(NC(CCN6CCC(C(=O)OCCCP(=O)(O)O)CC6)CSc6ccccc6)c(S(=O)(=O)C(F)(F)F)c5)cc4)CC3)c2)c(-c2ccc(Cl)cc2)n1C(C)C and report
-- reply > 1000 nM

-- ask Record: Cn1ncnc1[C@H]1c2n[nH]c(=O)c3cc(F)cc(c23)N[C@@H]1c1ccc(F)cc1 + Cc1c(S(C)(=O)=O)c(-c2cc(F)cc(N3CCN(c4ccc(NS(=O)(=O)c5ccc(NC(CCN6CCC(C(=O)OCCCP(=O)(O)O)CC6)CSc6ccccc6)c(S(=O)(=O)C(F)(F)F)c5)cc4)CC3)c2)c(-c2ccc(Cl)cc2)n1C(C)C
-- reply > 100 nM

-- ask What would you report for NC1CCC(NC2CC2c2ccccc2)CC1 (stereo unspecified) + Cc1c(S(C)(=O)=O)c(-c2cc(F)cc(N3CCN(c4ccc(NS(=O)(=O)c5ccc(NC(CCN6CCC(C(=O)OCCCP(=O)(O)O)CC6)CSc6ccccc6)c(S(=O)(=O)C(F)(F)F)c5)cc4)CC3)c2)c(-c2ccc(Cl)cc2)n1C(C)C ?
-- reply > 100 nM

-- ask Likewise for C=C(F)C(=O)N1CCN(c2nc(OCC3CCCN3C)nc3c2CCN(c2cccc4cccc(Cl)c24)C3)CC1CC#N (stereo unspecified) + Cc1c(S(C)(=O)=O)c(-c2cc(F)cc(N3CCN(c4ccc(NS(=O)(=O)c5ccc(NC(CCN6CCC(C(=O)OCCCP(=O)(O)O)CC6)CSc6ccccc6)c(S(=O)(=O)C(F)(F)F)c5)cc4)CC3)c2)c(-c2ccc(Cl)cc2)n1C(C)C ?
-- reply 5150 nM
